Quick reference for TGI among some compounds
Tested on: OVCAR-5 ovarian
Test: NCI tumour cell line growth inhibition, 48 h

{"compound": "O=C(CCC(=O)Nc1ccc(Cl)c(Cl)c1)CC(=O)c1ccc2ccccc2c1", "TGI": "> 100 µM"}
{"compound": "O=C1c2ccccc2C(=O)N1n1c(Cc2ccc(Cl)cc2)n[nH]c1=O", "TGI": "> 100 µM"}
{"compound": "N#CC1C[C@@H]2CC3(CCC2CN1C(=O)c1ccccc1)OCCO3 (stereo not given in full)", "TGI": "> 100 µM"}

// TGI lookup, key: Nn1c(Nc2ccc(S(N)(=O)=O)cc2)nnc(/C=C/c2c(O)ccc3ccccc23)c1=O
56.1 µM

Then what about the compound Cn1cc(C2=C(c3c4n(c5ccccc35)CCNC4)C(=O)NC2=O)c2ccccc21 ?
> 25 µM

Follow-up entry: CC1=C/C=C/C(=O)O[C@@H]([C@H](C)[C@H](O)[C@@H](C)NC(=O)C(C)C)[C@H](C)/C=C/C(C)=C/[C@H]2C=CCC[C@@]2(C)\C=C\1
14.3 µM

What about this compound? COC(=O)Nc1nc2ccc(S(=O)(=O)Nc3ccccn3)cc2[nH]1
> 100 µM

Would you kindly repeat that for CC(C)OP(=S)(NC(=S)c1ccccc1)OC(C)C ?
> 100 µM

Can you check Cc1cc2cc3cc(C)c(N)cc3nc2cc1N next?
2.65 µM

Let us now turn to CCOC(=O)c1c(NS(=O)(=O)c2ccc(C)cc2)sc2c1CCCC2
> 100 µM

###

Test system: SNB-75 CNS
Test: NCI tumour cell line growth inhibition, 48 h
property: TGI

Would you kindly share the measured TGI for Cc1ccccc1C1=C(c2cn(C)c3ccccc23)C(=O)NC1=O ?
> 25 µM

Next molecule: O=C(COc1ccccc1Cl)N1N=C(c2ccccc2)CC1(O)c1ccccc1 (centres undefined)
> 100 µM

How about C[C@H](c1ccc(F)cc1CCCC(=O)O)N(c1cc(F)ccc1F)S(=O)(=O)c1ccc(Cl)cc1 ?
> 91.3 µM

Similarly, N/C=N/S(=O)(=O)c1ccc(NC(=O)COC(=O)c2cccc3c(=O)c4ccccc4[nH]c23)cc1 ?
> 100 µM

###

compounds and their reported GI50
System: UACC-62 melanoma
Assay: NCI tumour cell line growth inhibition, 48 h

Solved entries:
{"compound": "O=C(CCCn1c2c(sc3ccccc32)c(=O)n2nnc(-c3ccccc3)c12)NCCc1cnc[nH]1", "GI50": "1810 nM"}
{"compound": "O=C(c1ccccc1)C(Cl)C(Cl)c1ccccc1 (centres undefined)", "GI50": "1690 nM"}

Given the compound COC1=CC(c2ccc[nH]2)=N/C1=C\c1[nH]c(C)c(C(=O)CCC(=O)Oc2ccc3c(c2)CCC2C3CC[C@]3(C)[C@@H](O)CC[C@@H]23)c1C (some centres undefined) , what is its reported GI50?
1700 nM

And what about the compound COc1ccc(/C=C/C(=O)c2c(O)ccc3c(C)c(C(=O)O)oc23)cc1 ?
55000 nM

###

System: SNB-75 CNS
Experiment: NCI tumour cell line growth inhibition, 48 h
property: TGI

Example entries begin here.
{"compound": "N#CC1C[C@@H]2CC3(CCC2CN1C(=O)c1ccccc1)OCCO3 (stereo not given in full)", "system under test": "SNB-75 CNS", "result": "> 100 µM"}
{"compound": "CC(=O)OCC1OC(n2cnc3nc(Br)[nH]c(=O)c32)C(OC(C)=O)C1OC(C)=O (stereo not given)", "system under test": "SNB-75 CNS", "result": "> 100 µM"}
{"compound": "Cc1cc(=O)[nH]c(CNC(=O)c2ccc3ccccc3c2)n1", "system under test": "SNB-75 CNS", "result": "> 100 µM"}
{"compound": "CC(C)NC(=O)OCc1c(COC(=O)NC(C)C)c(-c2ccc[n+](COC(=O)Cc3ccccc3)c2)n2c1CCC2", "system under test": "SNB-75 CNS", "result": "> 100 µM"}

Let's switch to this compound now.
Observed TGI on SNB-75 CNS for CC(=O)OCC1OC(N2C(=O)NC(=O)C3C=C4CCCCC4=CC32)CC1OC(C)=O (stereo not given) , please.
> 100 µM

###

Tested on: SW-620 colon
Test: NCI tumour cell line growth inhibition, 48 h
property: TGI (µM)
Write the value in µM as a bare number.

Any idea what TGI was measured for O=C(CCBr)N1CCN(C(=O)CCBr)CC1 ?
218

For O=c1ccc2ccc(CBr)cc2o1 then?
3.2

###

Tested on: NCI-H23 lung
Assay: NCI tumour cell line growth inhibition, 48 h
property: TGI

Below: 2 molecules and their reported TGI.
{"molecule": "[O-]/N=[N+](/[O-])C1CCCCC1=[N+]1CCOCC1 (centres undefined)", "result": "> 100 µM"}
{"molecule": "ClCCCSSCCCCl", "result": "> 100 µM"}

What value of measured TGI is listed for Cc1cc(=O)oc2cc(OCCCOc3ccc4c(C)cc(=O)oc4c3)ccc12 ?
> 100 µM

Same question, CCCCCCSc1nc(N)nc2nc[nH]c12 this time
> 100 µM

###

Tested on: OVCAR-5 ovarian
Assay: NCI tumour cell line growth inhibition, 48 h; in the data active = GI50 below about 0.43 µM; inactive = the rest
Return exactly one item of Y (active), N (inactive)

{"molecule": "CN1CCN(Cc2ccc(NC(=O)c3cncc(C#Cc4c(N)ncc5ccc(C#N)cc45)c3)cc2C(F)(F)F)CC1", "qualitative label": "N"}
{"molecule": "CCn1c(-c2nonc2N)nc2c(C#CC(C)(C)O)ncc(OC3CCNCC3)c21", "qualitative label": "N"}
{"molecule": "CNC(=O)c1nn(C)c2c1C(C)(C)Cc1cnc(Nc3cccc(N4CCN(C)CC4)c3)nc1-2", "qualitative label": "Y"}
{"molecule": "O=[N+]([O-])c1ccc(/C=C/c2nc3ccc(Cl)cc3[nH]2)cc1", "qualitative label": "N"}
{"molecule": "COc1cc(-c2cc3ncccc3c3nc(OCCN(C)C)c4cccnc4c23)cc(OC)c1OC", "qualitative label": "N"}
{"molecule": "C/C(CCC(=O)O)=N/Nc1ccc([N+](=O)[O-])cc1", "qualitative label": "N"}

Given O=C(/C=C/C12c3ccccc3C(c3ccccc31)C1C(=O)N(c3ccc(Cl)cc3)C(=O)C12)c1ccccn1 (configuration not stated) , state the outcome it received in this test.
Y

###

Tested on: HCT-15 colon
Experiment: NCI tumour cell line growth inhibition, 48 h; in the data active = GI50 below about 0.43 µM; inactive = the rest
Hi there, use one of these labels in your reply, thanks! active, inactive

The examples below pair each entry with its known result.
{"compound": "CS(=O)(=O)N1CCC(n2c(=O)c(Oc3ccc(F)cc3F)cc3cnc(NC4CCOCC4)nc32)CC1", "system under test": "HCT-15 colon", "qualitative label": "inactive"}
{"compound": "CN1CC=C(c2cc(NC(=O)Nc3ccc(Oc4ccnc(NC(=O)C5CC5)c4)c(F)c3)cc(C(F)(F)F)c2)CC1", "system under test": "HCT-15 colon", "qualitative label": "inactive"}
{"compound": "O=C(Cn1c(C(=O)c2ccc(Cl)cc2)nc(-c2ccc(Cl)cc2)c1-c1ccc(Cl)cc1)c1ccccc1", "system under test": "HCT-15 colon", "qualitative label": "inactive"}
{"compound": "O=[N+]([O-])c1ccc(/C=C/c2nc3ccc(Cl)cc3[nH]2)cc1", "system under test": "HCT-15 colon", "qualitative label": "inactive"}
{"compound": "COC1=CC(c2ccc[nH]2)=N/C1=C\\c1[nH]c(C)c(C(=O)CCC(=O)Oc2ccc3c(c2)CCC2C3CC[C@]3(C)[C@@H](O)CC[C@@H]23)c1C (stereo not given in full)", "system under test": "HCT-15 colon", "qualitative label": "inactive"}
{"compound": "O=C(CCCn1c2c(sc3ccccc32)c(=O)n2nnc(-c3ccccc3)c12)NCCc1cnc[nH]1", "system under test": "HCT-15 colon", "qualitative label": "inactive"}
{"compound": "COc1ccc(/C=C/C(=O)c2c(O)ccc3c(C)c(C(=O)O)oc23)cc1", "system under test": "HCT-15 colon", "qualitative label": "inactive"}
{"compound": "O=C1/C(=C/c2ccc([N+](=O)[O-])s2)Oc2cc(Cl)ccc21", "system under test": "HCT-15 colon", "qualitative label": "active"}

I'd appreciate the recorded outcome for N#Cc1c(NCc2ccccc2)nc(NCc2ccccc2)c(C#N)c1-c1ccc(Cl)cc1 from this test.
inactive

// next record OCc1ccc(-c2csc(-c3ccc(CO)o3)c2)o1
inactive

###

Test system: HL-60(TB) leukemia
Experiment: NCI tumour cell line growth inhibition, 48 h; in the data active means GI50 below about 0.43 µM; inactive means the rest
The categories you may choose from are label 1 (active), label 0 (inactive)

Please let me know the test result on file for O=C(CN1CCN(Cc2ccccc2Cl)CC1)NC1CC(=O)c2c(Br)sc(Br)c21 (centres undefined) .
label 0

Do the same for O=C(/C=C/C12c3ccccc3C(c3ccccc31)C1C(=O)N(c3ccc(Cl)cc3)C(=O)C12)c1ccccn1 (centres undefined) please
label 1

Similarly, OCc1ccc(-c2csc(-c3ccc(CO)o3)c2)o1 ?
label 0

Now consider Cc1ccccc1C1=C(c2cn(C)c3ccccc23)C(=O)NC1=O .
label 0
